test system: Escherichia coli TOP10; experiment: shrunken log2 fold change of peptide-encoding DNA abundance (4.5 h post-induction vs induction); higher = less antimicrobial activity (less host growth inhibition); conditions: time post-induction: 4.5 h; library: site-saturation at positions 5, 18, 19, 20
In this section we review reported shrunken log2 fold change values for a set of sequences.
Please give the numeric answer without any surrounding text.

Please review the entries below; each comes with its answer.
RRIRWRPPRLPRPRPRPWREPRP = -0.0969
RRIRFRPPRLPRPRPRPVYLPRP = -0.721
RRIRLRPPRLPRPRPRPPAAPRP = 0.771
RRIRMRPPRLPRPRPRPEQIPRP = 0.527

Look up shrunken log2 fold change for this sequence: RRIRERPPRLPRPRPRPPRPPRP
0.64

Look up shrunken log2 fold change for this sequence: RRIRDRPPRLPRPRPRPFVYPRP
-0.344

Look up shrunken log2 fold change for this sequence: RRIRSRPPRLPRPRPRPNENPRP
-0.118

Look up shrunken log2 fold change for this sequence: RRIRKRPPRLPRPRPRPHYMPRP
-0.0279

Look up shrunken log2 fold change for this sequence: RRIRARPPRLPRPRPRPTFRPRP
0.323

Look up shrunken log2 fold change for this sequence: RRIRVRPPRLPRPRPRPQYEPRP
-0.174

Look up shrunken log2 fold change for this sequence: RRIRERPPRLPRPRPRPLIAPRP
-0.128

Look up shrunken log2 fold change for this sequence: RRIRCRPPRLPRPRPRPSTPPRP
-0.382

Look up shrunken log2 fold change for this sequence: RRIRIRPPRLPRPRPRPYTGPRP
-0.177

====

In this section we review reported shrunken log2 fold change values for a set of sequences.
system: Escherichia coli TOP10; experiment: shrunken log2 fold change of peptide-encoding DNA abundance (4.5 h post-induction vs induction); higher = less antimicrobial activity (less host growth inhibition); conditions: time post-induction: 4.5 h; library: site-saturation at positions 5, 18, 19, 20
Please give the numeric answer without any surrounding text.

RRIRFRPPRLPRPRPRPWMDPRP = -0.347

# returns recorded shrunken log2 fold change (system: Escherichia coli TOP10) for RRIRMRPPRLPRPRPRPVQDPRP
0.32

# returns recorded shrunken log2 fold change (system: Escherichia coli TOP10) for RRIRSRPPRLPRPRPRPMVDPRP
0.197

# returns recorded shrunken log2 fold change (system: Escherichia coli TOP10) for RRIRDRPPRLPRPRPRPLWIPRP
-0.421

# returns recorded shrunken log2 fold change (system: Escherichia coli TOP10) for RRIRLRPPRLPRPRPRPIAMPRP
-0.0743

====

test system: Escherichia coli TOP10; assay: shrunken log2 fold change of peptide-encoding DNA abundance (4.5 h post-induction vs induction); higher = less antimicrobial activity (less host growth inhibition); settings: time post-induction: 4.5 h; library: site-saturation at positions 5, 18, 19, 20;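 note: peptides expressed intracellularly from a pBAD plasmid library in pooled LB shake-flask culture, induced with 0.3% L-arabinose, DNA abundance read by NGS, three biological replicates, DESeq2 with apeglm shrinkage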
Response field class: string, computed from recorded shrunken log2 fold change by ranges L: < -0.2; M: ≥ -0.2 and < 0.07; H: ≥ 0.07

RRIRARPPRLPRPRPRPKVNPRP = M
RRIRARPPRLPRPRPRPEIYPRP = M
RRIRMRPPRLPRPRPRPWMKPRP = L
RRIRWRPPRLPRPRPRPLIFPRP = L
RRIRFRPPRLPRPRPRPCGLPRP = M
RRIRYRPPRLPRPRPRPLYLPRP = L
RRIRERPPRLPRPRPRPHPHPRP = M
RRIRQRPPRLPRPRPRPFIEPRP = M
RRIRSRPPRLPRPRPRPAWRPRP = H
RRIRHRPPRLPRPRPRPCTFPRP = L

Into which bin does this sequence go? RRIRLRPPRLPRPRPRPHYRPRP
M

Into which bin does this sequence go? RRIRSRPPRLPRPRPRPAQRPRP
H

Into which bin does this sequence go? RRIRWRPPRLPRPRPRPMSCPRP
L

Into which bin does this sequence go? RRIRIRPPRLPRPRPRPWDPPRP
M

Into which bin does this sequence go? RRIRQRPPRLPRPRPRPNLQPRP
H
